- study system: intracellular phosphorylation of EGFR (Tyr1068) in PC-9 cells (Homo sapiens, UniProt P00533, DEL746-750)
- Sequence (P00533 with tags, fused parts or gaps DEL746-750): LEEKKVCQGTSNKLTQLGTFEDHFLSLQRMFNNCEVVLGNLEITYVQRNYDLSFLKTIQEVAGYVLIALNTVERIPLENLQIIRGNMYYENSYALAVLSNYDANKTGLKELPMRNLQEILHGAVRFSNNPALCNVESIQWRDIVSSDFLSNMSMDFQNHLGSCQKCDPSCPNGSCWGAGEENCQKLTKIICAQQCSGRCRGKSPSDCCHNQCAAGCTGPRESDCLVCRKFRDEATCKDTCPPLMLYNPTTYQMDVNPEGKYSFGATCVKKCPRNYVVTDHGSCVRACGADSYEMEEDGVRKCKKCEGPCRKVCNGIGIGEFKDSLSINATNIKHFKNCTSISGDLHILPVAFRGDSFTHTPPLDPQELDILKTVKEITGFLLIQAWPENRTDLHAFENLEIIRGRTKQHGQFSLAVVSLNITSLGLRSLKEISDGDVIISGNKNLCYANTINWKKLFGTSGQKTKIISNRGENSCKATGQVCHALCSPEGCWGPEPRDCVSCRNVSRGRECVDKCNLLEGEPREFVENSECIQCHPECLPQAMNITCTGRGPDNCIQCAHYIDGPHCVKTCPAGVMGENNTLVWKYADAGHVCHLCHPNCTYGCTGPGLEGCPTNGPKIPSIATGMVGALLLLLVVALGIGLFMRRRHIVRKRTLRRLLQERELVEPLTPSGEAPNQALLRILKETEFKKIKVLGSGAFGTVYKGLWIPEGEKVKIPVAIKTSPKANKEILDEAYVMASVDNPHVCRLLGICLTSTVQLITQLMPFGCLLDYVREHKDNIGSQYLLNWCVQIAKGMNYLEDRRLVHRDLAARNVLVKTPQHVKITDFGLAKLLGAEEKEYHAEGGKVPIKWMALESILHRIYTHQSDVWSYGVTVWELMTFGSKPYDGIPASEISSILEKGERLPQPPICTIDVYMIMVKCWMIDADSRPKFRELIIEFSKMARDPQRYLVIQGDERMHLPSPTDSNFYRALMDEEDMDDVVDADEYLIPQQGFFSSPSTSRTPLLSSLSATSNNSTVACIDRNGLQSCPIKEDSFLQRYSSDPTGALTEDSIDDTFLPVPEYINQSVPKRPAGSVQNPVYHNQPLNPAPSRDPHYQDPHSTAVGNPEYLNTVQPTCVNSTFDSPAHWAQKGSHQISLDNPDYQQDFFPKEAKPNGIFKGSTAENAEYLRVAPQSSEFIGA
- test summary: PC-9 pEGFR AlphaLISA assay
- Assay type: cell-based
- condition context: 4 hours incubation, read-out: Phos EGFR PC9 IC50
pIC50: −log10 of the molar value.
Reported pIC50 by item:

[[record]]
molecule = "COc1nn(C)cc1-c1cc(O[C@@H]2CCN(C)C[C@H]2F)c2c(Nc3ccc4ncsc4c3F)ncnc2c1 [Example 351]"
result = "≥ 8.00"

[[record]]
molecule = "C[C@H](CN1CCOCC1)Oc1cc(-c2cnn(C)c2)cc2ncnc(Nc3ccc4ncsc4c3)c12 [Example 395]"
result = "7.30 to 8.00"

[[record]]
molecule = "CC(C)Oc1cc(-c2cnn(C)c2)cc2ncnc(Nc3ccc4scnc4c3)c12 [Example 254]"
result = "7.30 to 8.00"


Next:
## Task What value of pIC50 has been recorded for this entry: CN1CC[C@H](Oc2cc(-c3cnn(C)c3)cc3ncnc(Nc4ccc5ncsc5c4)c23)C[C@H]1CO [Example A07]
## Result 7.30 to 8.00
